Tm values by entry
B1: Ribonuclease, P00648 (parent)
chain: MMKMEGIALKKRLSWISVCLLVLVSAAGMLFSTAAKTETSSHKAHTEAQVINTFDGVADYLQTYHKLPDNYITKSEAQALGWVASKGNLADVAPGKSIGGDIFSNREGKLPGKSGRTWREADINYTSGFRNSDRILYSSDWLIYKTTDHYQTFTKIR

# Variants of: B1
# Condition details: Bacillus amyloliquefaciens; pH 6.3; Thermal; Fluorescence; MES 50 mM; reversible: yes (>85%); structure 1BNI; whole UniProt chain shown
Only the number, expressed in °C, is required.

Example variants with recorded Tm:
INSERT INTO results (mutation_list, unit_text, numeric_readout) VALUES
  ('I143V', '°C', 51.5),
  ('I135V', '°C', 51),
  ('I135A', '°C', 42.7),
  ('I143A', '°C', 44.9);

Problem: Fill blank: measured Tm of the variant `L61A` is ____.
Solution: 42
